Test system: NCI-H23 lung
Assay: NCI-60 one-dose screen, 48 h
Conditions: 10 µM unless noted
Compounds without any hit were thinned out: in the full panel of roughly 83,000, 20% have a hit. Calls of active or inactive are those of the source. How the source made its calls: active means growth percent below 10; inactive means the rest.
# valid calls are 1 (active), 0 (inactive); nothing else

Use the examples below as a reference point.
CCCCCCn1c(=N)n(CC(O)COc2cccc(C)c2)c2ccccc21 (stereo not drawn) ... 0
COc1ccc(-c2nc(-c3ccccn3)c(-c3ccccn3)n2CC(C)C)cc1OC1CCCC1 ... 0
O=c1oc2ccc(I)cc2c(=O)n1-c1ccc(F)cc1F ... 1
CN1C(=O)N(C)C2Nn3c(s/c(=C4\C(=O)N(CCc5ccccc5)c5ccccc54)c3=O)=NC21 (stereo not drawn) ... 0
CNCCNc1nc2ccccc2c2c(=O)c3cccc(OC)c3sc12 ... 0
O=c1oc2ccc(I)cc2c(=O)n1-c1ccc(Br)cc1F ... 1
N[C@@H](CC/[N+]([O-])=N/O)C(=O)O ... 0
CC(C)[C@H](NC(=O)Cn1cc(C(=O)O)nn1)C(=O)O ... 0

Query: recorded result category for CS(=O)(=O)Nc1ccc(C(=O)NC(C(=O)NO)c2ccc(-c3cccc(F)c3)cc2)cc1 (stereo not drawn) in this test
0

What did this assay record as the result for O=C(/C=C/c1ccccn1)c1ccc(OCc2nnc(-c3ccc(Cl)cc3)o2)cc1 ?
0

// param item: Oc1ccc(-c2nc(-c3ccc4oc5ccc(-c6[nH]c(-c7ccc(O)cc7)nc6-c6ccccc6)cc5c4c3)c(-c3ccccc3)[nH]2)cc1 ; yields the recorded call
0

How was Clc1ncccc1Nc1ccc2nnc(-c3ccncc3)n2n1 classified in this test?
0

Could you kindly confirm the outcome this assay logged for CNCCNc1nc2ccccc2c2c(=O)c3cc(F)ccc3sc12 ?
0

Which result was noted for this compound in the test: O=c1[nH]nnc2c1ncn2C1OC(CO)C(O)C1O (stereo not drawn)
0

Short answer needed: outcome of this test for O=S1(=O)N(Cc2ccccc2)[C@@H](Cc2ccccc2)C2O[C@H]2[C@H](Cc2ccccc2)N1Cc1ccccc1 (stereo partly drawn) ?
0

// param item: Oc1c(CN2CCN(c3ccccc3F)CC2)cc(Br)c2cccnc12 ; yields the recorded call
0

Entry Cn1nc(C(C)(C)C)cc1NC(=O)Cc1ccc(/C=C2\C(=O)Nc3ccccc32)cc1 : call = ?
0

Can you look up the reported call for N#C/C(=C\c1c(-c2ccccc2)[nH]c2ccccc12)S(=O)(=O)c1ccccc1 for me?
0

So what was the verdict on Cc1c(-c2csc(-n3nc(C(F)(F)F)cc3C(F)(F)F)n2)no[n+]1[O-] in this test?
0

How was Cc1ccc2nc(NC(=O)CSC(=S)N3CCN(c4ccccc4)CC3)sc2c1 classified in this test?
0
